Tested on: Ebola VLP entry into HeLa cells
Test: microbe, parasite or virus in culture
Format: cell-based, Ebola virus
Conditions: Zaire ebolavirus, HeLa, read-out: Block Ebola VLP entry IC50
pIC50: −log10 of the molar value. Counter-ions that a name gives are not always drawn.
The following molecules are shown together with reported pIC50 values.
value_type: pIC50

>>> test_result("O=C(c1ccc(OCCN2CCCCC2)cc1)c1c(-c2ccc(O)cc2)sc2cc(O)ccc12 [Raloxifene/Evista, Raloxifene]")
5.74
>>> test_result("O=C(CCN1CCN2CCCC2C1)N1c2ccccc2Sc2ccc(Cl)cc21 (stereo not drawn) [Azaclorzine]")
5.03
>>> test_result("CCCSc1ccc2nc(NC(=O)OC)[nH]c2c1 [Albendazole]")
5.31
>>> test_result("CC[C@H]1OC(=O)[C@H](C)[C@@H](O[C@H]2C[C@@](C)(OC)[C@@H](O)[C@H](C)O2)[C@H](C)[C@@H](O[C@@H]2O[C@H](C)C[C@H](N(C)C)[C@H]2O)[C@](C)(O)C[C@@H](C)CN(C)[C@H](C)[C@@H](O)[C@]1(C)O [Azithromycin]")
5.55
>>> test_result("CCCNCC(O)COc1ccccc1C(=O)CCc1ccccc1 (stereo not drawn) [Propafenone]")
5.20
>>> test_result("OC(c1cc(C(F)(F)F)nc2c(C(F)(F)F)cccc12)C1CCCCN1 (stereo not drawn) [Mefloquine]")
5.56
>>> test_result("CCCN(CCC)C(=O)C(CCC(=O)OCCCN1CCN(CCOC(=O)Cc2c(C)n(C(=O)c3ccc(Cl)cc3)c3ccc(OC)cc23)CC1)NC(=O)c1ccccc1 (stereo not drawn) [Proglumetacin]")
5.16
>>> test_result("CN(C)CCOc1ccc(/C(=C(/CCCl)c2ccccc2)c2ccccc2)cc1 [Toremifene]")
6.25
>>> test_result("CCN(CCCc1ccccc1)CCCc1ccccc1 [Alverine Citrate]")
5.06
>>> test_result("CC1CCCCN1CCCOC(=O)c1ccc(OC2CCCCC2)cc1 (stereo not drawn) [Cyclomethycaine]")
5.11
>>> test_result("COc1cc(Nc2c(C#N)cnc3cc(OCCCN4CCN(C)CC4)c(OC)cc23)c(Cl)cc1Cl [Bosutinib]")
5.41
>>> test_result("CCCOc1ccc2nc(NC(=O)OC)[nH]c2c1 [Oxibendazole]")
5.76
>>> test_result("CCC1=C[C@@H]2CN(C1)Cc1c([nH]c3ccccc13)[C@@](C(=O)OC)(c1cc3c(cc1OC)N(C)[C@H]1[C@@](O)(C(=O)OC)[C@H](OC(C)=O)[C@]4(CC)C=CCN5CC[C@]31[C@@H]54)C2 [Vinorelbine/Navelbine, Vinorelbine]")
7.18
>>> test_result("CCN(CC)Cc1cc(Nc2ccnc3cc(Cl)ccc23)ccc1O [Amodiaquine]")
5.35
>>> test_result("CO[C@@H]1[C@@H](OC)[C@H](C)[C@@](O)(CC(=O)O)O[C@H]1[C@H](C)[C@H]1O[C@@]2(CC[C@@](C)([C@H]3CC[C@@](C)([C@@H]4O[C@@H]([C@H]5O[C@](C)(O)[C@H](C)C[C@@H]5C)C[C@@H]4O[C@@H]4C[C@H](OC)[C@@H](OC)[C@H](C)O4)O3)O2)C[C@H](O)[C@H]1C [Maduramicin]")
6.21
>>> test_result("CCN(CC)CCCC(C)Nc1ccnc2cc(Cl)ccc12 (stereo not drawn) [Chloroquine]")
4.82
>>> test_result("CC[C@@]1(O)C(=O)OCc2c1cc1n(c2=O)Cc2cc3c(CN(C)C)c(O)ccc3nc2-1 [Topotecan]")
5.41
>>> test_result("COCC(=O)O[C@]1(CCN(C)CCCc2nc3ccccc3[nH]2)CCc2cc(F)ccc2[C@@H]1C(C)C [Mibefradil]")
5.36
>>> test_result("OCc1cc(C(O)CNCCCCCCOCCCCc2ccccc2)ccc1O (stereo not drawn) [Salmeterol]")
5.01
>>> test_result("COc1ccc2cc1Oc1ccc(cc1)C[C@H]1c3c(cc4c(c3Oc3cc5c(cc3OC)CCN(C)[C@@H]5C2)OCO4)CCN1C [Cepharanthine]")
5.82
>>> test_result("COc1cccc2c1C(=O)c1c(O)c3c(c(O)c1C2=O)C[C@@](O)(C(C)=O)C[C@@H]3O[C@H]1C[C@H](N)[C@H](O)[C@H](C)O1 [Daunomycin]")
5.58
>>> test_result("COC(=O)Nc1nc2ccc(C(=O)c3ccccc3)cc2[nH]1 [Mebendazole]")
5.46
>>> test_result("CC[C@]1(O)C[C@@H]2CN(CCc3c([nH]c4ccccc34)[C@@](C(=O)OC)(c3cc4c(cc3OC)N(C)[C@H]3[C@@](O)(C(=O)OC)[C@H](OC(C)=O)[C@]5(CC)C=CCN6CC[C@]43[C@@H]65)C2)C1 [Vinblastine]")
7.32
>>> test_result("CC(C)C[C@H](NC(=O)[C@H](CCc1ccccc1)NC(=O)CN1CCOCC1)C(=O)N[C@@H](Cc1ccccc1)C(=O)N[C@@H](CC(C)C)C(=O)[C@@]1(C)CO1 [Carfilzomib]")
6.36

Source of measurements: paper PMC4317638
